target: Phospholipase D2 (Homo sapiens) (UniProt O14939); assay: PLD2 inhibitor potency in cells, dose response (AID 602147); settings: cellular PLD2 activity assay, concentration response
Sequence (O14939 whole entry, looked up): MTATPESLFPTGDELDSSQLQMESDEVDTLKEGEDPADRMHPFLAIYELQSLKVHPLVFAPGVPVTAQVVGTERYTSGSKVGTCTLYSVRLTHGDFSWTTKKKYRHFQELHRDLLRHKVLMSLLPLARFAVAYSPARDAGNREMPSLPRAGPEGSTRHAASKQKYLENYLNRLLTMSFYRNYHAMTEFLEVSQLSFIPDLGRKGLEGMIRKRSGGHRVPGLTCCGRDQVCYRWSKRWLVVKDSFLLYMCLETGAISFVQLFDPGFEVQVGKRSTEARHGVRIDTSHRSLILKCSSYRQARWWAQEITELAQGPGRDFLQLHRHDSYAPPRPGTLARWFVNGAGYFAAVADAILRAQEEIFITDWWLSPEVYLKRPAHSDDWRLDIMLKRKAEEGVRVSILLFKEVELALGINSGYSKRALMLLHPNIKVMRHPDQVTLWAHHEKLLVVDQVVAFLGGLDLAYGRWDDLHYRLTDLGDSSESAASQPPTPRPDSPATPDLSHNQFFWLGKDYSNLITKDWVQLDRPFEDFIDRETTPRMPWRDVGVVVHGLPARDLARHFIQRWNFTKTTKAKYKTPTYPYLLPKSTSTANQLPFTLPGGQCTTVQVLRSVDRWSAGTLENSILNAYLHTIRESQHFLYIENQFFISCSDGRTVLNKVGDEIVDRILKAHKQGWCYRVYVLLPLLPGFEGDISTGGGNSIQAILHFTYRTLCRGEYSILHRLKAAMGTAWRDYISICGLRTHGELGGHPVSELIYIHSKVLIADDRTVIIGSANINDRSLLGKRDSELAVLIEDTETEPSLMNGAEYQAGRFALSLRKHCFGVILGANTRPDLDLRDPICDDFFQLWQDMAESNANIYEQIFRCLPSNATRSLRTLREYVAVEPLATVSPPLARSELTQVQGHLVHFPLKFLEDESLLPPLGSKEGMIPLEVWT
Sequence (O14939 whole entry, looked up): as above
Please go through the items and note down their IC50.

Note down IC50 recorded for O=C(NCCN1CCC2(CC1)C(=O)NCN2c1cccc(Cl)c1)c1ccc2ccccc2c1
290 nM

Note down IC50 recorded for O=C(NCCN1CCC2(CC1)C(=O)NCN2c1ccccc1)c1cc2ccccc2s1
30 nM

Note down IC50 recorded for O=C(NCCN1CCC2(CC1)C(=O)NCN2c1ccc(F)cc1)c1ccc(F)cc1
610 nM

Note down IC50 recorded for O=C(C#Cc1ccccc1)NCCN1CCC2(CC1)C(=O)NCN2c1ccccc1
1640 nM

Note down IC50 recorded for O=C(NCCN1CCC2(CC1)C(=O)NCN2c1ccc(Cl)cc1)c1cnc2ccccc2c1
200 nM

Note down IC50 recorded for COc1cc(C(=O)NCCN2CCC3(CC2)C(=O)NCN3c2ccccc2)ccc1N
550 nM

Note down IC50 recorded for O=C(NCCN1CCC2(CC1)C(=O)NCN2c1ccc(F)cc1)c1cnc2ccccc2c1
40 nM

Note down IC50 recorded for C[C@@H](CN1CCC2(CC1)C(=O)NCN2c1cccc(F)c1)NC(=O)c1ccc2ccccc2c1
60 nM

Note down IC50 recorded for O=C(NCCN1CCC2(CC1)C(=O)NCN2c1cccc(F)c1)c1cc2cc(F)ccc2[nH]1
25 nM

Note down IC50 recorded for O=C(NCCN1CCC2(CC1)C(=O)NCN2c1cccc(Cl)c1)c1ccc(F)cc1
70 nM

Note down IC50 recorded for O=C(NCCN1CCC2(CC1)C(=O)NCN2c1cccc(F)c1)c1ccc(F)cc1
6690 nM

Note down IC50 recorded for O=C(NCCN1CCC2(CC1)C(=O)NCN2c1ccc(Br)cc1)c1ccc(F)cc1
8000 nM

Note down IC50 recorded for O=C(NCCN1CCC2(CC1)C(=O)NCN2c1ccc(F)cc1)c1ccc2ccccc2c1
80 nM

Note down IC50 recorded for O=C(NCCN1CCC2(CC1)C(=O)NCN2c1cccc(Cl)c1)c1cnc2ccccc2c1
165 nM

Note down IC50 recorded for O=C(NCCN1CCC2(CC1)C(=O)NCN2c1ccc(Cl)cc1)c1ccc(F)cc1
5670 nM

Note down IC50 recorded for O=C(NCCN1CCC2(CC1)C(=O)NCN2c1cccc(F)c1)c1cnc2ccccc2c1
63 nM

Note down IC50 recorded for O=C(NCCN1CCC2(CC1)C(=O)NCN2c1ccc(Cl)cc1)c1ccc2ccccc2c1
655 nM

Note down IC50 recorded for O=C(NCCN1CCC2(CC1)C(=O)NCN2c1ccc(Cl)cc1)c1cc2cc(F)ccc2[nH]1
50 nM

Note down IC50 recorded for O=C(NCCN1CCC2(CC1)C(=O)NCN2c1ccc(Br)cc1)c1cnc2ccccc2c1
360 nM

Note down IC50 recorded for O=C(NCCN1CCC2(CC1)C(=O)NCN2c1cccc(Cl)c1)c1cc2cc(F)ccc2[nH]1
73 nM
